Source of measurements: paper PMC8533206

# measured.on: Human recombinant MAO-A (hMAO-A) (Homo sapiens)
# Construct: purchased Sigma-Aldrich; host or cells: insect cells
# Sequence (P21397 1-527): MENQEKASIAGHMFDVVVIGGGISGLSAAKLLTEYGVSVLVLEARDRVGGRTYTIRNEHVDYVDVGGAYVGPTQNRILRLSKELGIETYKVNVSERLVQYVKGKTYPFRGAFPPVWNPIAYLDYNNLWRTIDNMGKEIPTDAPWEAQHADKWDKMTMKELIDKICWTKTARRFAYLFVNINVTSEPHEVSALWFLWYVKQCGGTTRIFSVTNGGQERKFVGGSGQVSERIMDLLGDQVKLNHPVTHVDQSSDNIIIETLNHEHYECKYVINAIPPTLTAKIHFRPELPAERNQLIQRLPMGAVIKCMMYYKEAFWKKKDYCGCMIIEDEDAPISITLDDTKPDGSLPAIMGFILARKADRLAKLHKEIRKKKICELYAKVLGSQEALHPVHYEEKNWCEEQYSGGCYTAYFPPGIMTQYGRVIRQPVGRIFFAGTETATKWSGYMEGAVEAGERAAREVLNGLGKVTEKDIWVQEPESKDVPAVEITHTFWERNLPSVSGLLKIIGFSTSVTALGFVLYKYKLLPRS
# assay.protocol: MAO-A inhibition assay (Amplex Red fluorescence, p-tyramine substrate)
# Assay type: biochemical
# inhibition at 100 µM per entry
value.type: inhibition at 100 µM

* O=C(Nc1ccc(I)cc1)c1ccc2[nH]ccc2c1 [Compound 8a, N-(4-iodophenyl)-1H-indole-5-carboxamide] | 23.5%
* COC(=O)c1ccc2c(ccn2C(=O)c2ccc(Cl)c(Cl)c2)c1 | < 10%
* O=C(Nc1ccc(Br)cc1)c1ccc2[nH]ccc2c1 | 30.1%
* O=C(Nc1ccc2c(c1)OCO2)c1ccc2[nH]ccc2c1 | < 10%
